meta.source: the Human Domainome abundance scans (Beltran et al. 2025)

B1: Transitional endoplasmic reticulum ATPase, residues 26 to 106; numbered along this chain, P55072 (parent)
chain: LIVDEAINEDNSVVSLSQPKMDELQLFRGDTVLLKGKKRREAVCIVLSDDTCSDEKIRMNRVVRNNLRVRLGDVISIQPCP

Variants of: B1
Assay: abundance fitness (aPCA) (normalised: wild type 0, dead -1); higher = more abundant; growth selection in yeast, the domain comes from the species named
Details: Homo sapiens
The reader will find reported abundance fitness values listed item by item below.
// response body must contain only the number

Worked cases, answers included:
R28H = 0.226
R39W = -0.08
T31D = -0.27
N66Y = -0.176
K20E = -0.705
L33Y = 0.086
L34C = 0.26
D10L = -0.105
L33C = 0.055
K35T = 0.117

# evaluate next
Would you kindly share the measured abundance fitness for `L33V` ? 0.042
